Reference source: ChEMBL document CHEMBL1133833

molecular target: D(2) dopamine receptor (Bos taurus); assay: In vitro ability to displace [3H]pramipexole from high affinity binding sites of bovine D2 receptors in striatal membranes.
Quantity: Ki (nM)
Give the value in nM but do not write nM after it.

* CCCN(CCC)[C@H]1CCn2ccc(C=O)c2C1 | 1600

For the next question, use this compound.
Endpoint output: Ki of `CCCN(CCC)[C@H]1CCn2c(C=O)ccc2C1` . Value? 21

---

target: D(1A) dopamine receptor (Bos taurus, UniProt Q95136); experiment: In vitro ability to displace [3H]SCH-23390 from bovine Dopamine receptor D1 in striatal membranes.
Sequence (Q95136 whole entry): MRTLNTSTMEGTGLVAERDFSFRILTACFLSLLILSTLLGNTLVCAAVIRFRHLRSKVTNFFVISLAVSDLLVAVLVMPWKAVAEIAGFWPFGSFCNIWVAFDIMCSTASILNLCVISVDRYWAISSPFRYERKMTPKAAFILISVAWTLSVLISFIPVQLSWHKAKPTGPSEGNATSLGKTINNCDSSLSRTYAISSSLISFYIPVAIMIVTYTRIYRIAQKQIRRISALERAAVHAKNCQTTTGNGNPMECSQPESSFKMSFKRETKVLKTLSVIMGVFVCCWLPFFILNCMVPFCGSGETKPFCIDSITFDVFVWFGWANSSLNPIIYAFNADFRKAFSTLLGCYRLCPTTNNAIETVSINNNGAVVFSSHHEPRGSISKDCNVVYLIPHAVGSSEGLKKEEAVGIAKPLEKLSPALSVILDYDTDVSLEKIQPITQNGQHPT
This section presents compounds with their documented Ki values.
Give the value in µM but do not write µM after it.

Endpoint output: Ki of `CCCN(CCC)[C@H]1CCn2ccc(C)c2C1` . Value? 68

Ok, now `CCCN(CCC)[C@@H]1CCn2c(C)ccc2C1` 12

Ok, now `CCCN(CCC)[C@@H]1CCn2ccc(CO)c2C1` 100

Ok, now `CCCN(CCC)[C@H]1CCn2c(C)ccc2C1` 29

Ok, now `CCCN(CCC)[C@H]1CCn2c(CO)ccc2C1` 13

---

biological target: D(2) dopamine receptor (Bos taurus, UniProt P20288); test: In vitro ability to displace [3H]pramipexole from high affinity binding sites of bovine D2 receptors in striatal membranes.
Sequence (P20288 whole entry): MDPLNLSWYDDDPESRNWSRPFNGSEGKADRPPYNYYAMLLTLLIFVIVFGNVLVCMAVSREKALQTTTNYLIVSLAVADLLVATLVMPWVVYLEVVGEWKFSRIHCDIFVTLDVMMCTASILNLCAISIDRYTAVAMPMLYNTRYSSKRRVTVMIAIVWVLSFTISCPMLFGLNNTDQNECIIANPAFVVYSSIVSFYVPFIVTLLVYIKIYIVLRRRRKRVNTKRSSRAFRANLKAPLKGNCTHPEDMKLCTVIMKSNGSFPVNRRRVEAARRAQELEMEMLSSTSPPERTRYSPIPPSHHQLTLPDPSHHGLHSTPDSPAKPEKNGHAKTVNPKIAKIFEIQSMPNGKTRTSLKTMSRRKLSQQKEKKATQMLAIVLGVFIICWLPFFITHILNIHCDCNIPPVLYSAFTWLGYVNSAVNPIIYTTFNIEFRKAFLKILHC
This section presents compounds with their documented pKi values.
Please note pKi is a logarithmic value: minus log10 of concentration in mol/L. Answer with that number alone.

# count of solved cases: 3
- CCCN(CCC)[C@H]1CCn2ccc(CO)c2C1: 5.10
- CCCN(CCC)[C@H]1CCn2c(CO)ccc2C1: 7.06
- CCCN(CCC)[C@H]1CCn2cc(CO)cc2C1: 4.89

Test system D(2) dopamine receptor (Bos taurus, UniProt P20288); read-out pKi; what value for `CCCN(CCC)[C@@H]1CCn2cc(CO)cc2C1` ? 6.00

---

Ki data for D(3) dopamine receptor (Homo sapiens, UniProt P35462) follow.
Give the value in µM but do not write µM after it.

# count of solved cases: 3
* CCCN(CCC)[C@H]1CCn2ccc(CO)c2C1 | 9.7
* CCCN(CCC)[C@H]1CCn2ccc(C=O)c2C1 | 3.6
* CCCN(CCC)[C@H]1CCn2c(CO)ccc2C1 | 0.42

Endpoint output: Ki of `CCCN(CCC)[C@@H]1CCn2cccc2C1` . Value? 0.56

---

biological target: D(1A) dopamine receptor (Bos taurus); experiment: In vitro ability to displace [3H]SCH-23390 from bovine Dopamine receptor D1 in striatal membranes.
Quantity: Ki

- CCCN(CCC)[C@@H]1CCn2c(CO)ccc2C1: > 100 µM
- CCCN(CCC)[C@H]1CCn2ccc(CO)c2C1: > 100 µM
- CCCN(CCC)[C@@H]1CCn2c(C=O)ccc2C1: 47 µM

For the next question, use this compound.
Endpoint output: Ki of `CCCN(CCC)[C@H]1CCn2cc(C)cc2C1` . Value? 44 µM

---

molecular target: D(2) dopamine receptor (Bos taurus); experiment: In vitro ability to displace [3H]-spiperone from bovine cloned Dopamine receptor D2 stably expressed in CHO cells.; type: cell-based
This section presents molecules with their documented log10 Ki values.
Note the log scale: values are log10 of Ki expressed in µM.

# count of solved cases: 5
* CCCN(CCC)[C@@H]1CCn2c(CO)ccc2C1 | 1.57
* CCCN(CCC)[C@@H]1CCn2ccc(C)c2C1 | 1.08
* CCCN(CCC)[C@@H]1CCn2cc(C)cc2C1 | 1.23
* CCCN(CCC)[C@@H]1CCn2c(C)ccc2C1 | 0.11
* CCCN(CCC)[C@@H]1CCn2cc(CO)cc2C1 | 1.53

Test system D(2) dopamine receptor (Bos taurus); read-out log10 Ki; what value for `CCCN(CCC)[C@@H]1CCn2ccc(C=O)c2C1` ? 1.08

Ok, now `CCCN(CCC)[C@@H]1CCn2c(C=O)ccc2C1` 1.32

Ok, now `CCCN(CCC)[C@H]1CCn2c(C)ccc2C1` 0.58

Ok, now `CCCN(CCC)[C@H]1CCn2ccc(C)c2C1` 0.60

Ok, now `CCCN(CCC)[C@H]1CCn2cc(C)cc2C1` 0.98

Ok, now `CCCN(CCC)[C@@H]1CCn2cccc2C1` 0.61

Ok, now `CCCN(CCC)[C@@H]1CCn2ccc(CO)c2C1` 0.79

---

molecular target: D(2) dopamine receptor (Bos taurus, UniProt P20288); experiment: In vitro ability to displace [3H]-spiperone from bovine cloned Dopamine receptor D2 stably expressed in CHO cells.; format: cell-based
Quantity: Ki (µM)
Give the value in µM but do not write µM after it.

* CCCN(CCC)[C@H]1CCn2ccc(C=O)c2C1 | 5.9
* CCCN(CCC)[C@H]1CCn2ccc(CO)c2C1 | 55

For the next question, use this compound.
Endpoint output: Ki of `CCCN(CCC)[C@H]1CCn2c(CO)ccc2C1` . Value? 5.5

---

biological target: D(2) dopamine receptor (Bos taurus, UniProt P20288); assay: In vitro ability to displace [3H]pramipexole from high affinity binding sites of bovine D2 receptors in striatal membranes.
Quantity: pKi
Please note pKi is a logarithmic value: minus log10 of concentration in mol/L. Answer with that number alone.

# count of solved cases: 8
• CCCN(CCC)[C@@H]1CCn2ccc(C)c2C1 = 6.00
• CCCN(CCC)[C@@H]1CCn2ccc(C=O)c2C1 = 6.42
• CCCN(CCC)[C@@H]1CCn2cccc2C1 = 6.82
• CCCN(CCC)[C@@H]1CCn2c(CO)ccc2C1 = 5.33
• CCCN(CCC)[C@H]1CCn2c(C)ccc2C1 = 6.82
• CCCN(CCC)[C@H]1CCn2cc(C)cc2C1 = 6.19
• CCCN(CCC)[C@@H]1CCn2c(C=O)ccc2C1 = 5.77
• CCCN(CCC)[C@@H]1CCn2cc(C)cc2C1 = 6.10

Endpoint output: pKi of `CCCN(CCC)[C@@H]1CCn2ccc(CO)c2C1` . Value? 6.70

Ok, now `CCCN(CCC)[C@@H]1CCn2c(C)ccc2C1` 6.37

Ok, now `CCCN(CCC)[C@H]1CCn2ccc(C)c2C1` 6.42

---

target: D(1A) dopamine receptor (Bos taurus, UniProt Q95136); test: In vitro ability to displace [3H]SCH-23390 from bovine Dopamine receptor D1 in striatal membranes.
This section presents compounds with their documented Ki values.

# count of solved cases: 5
• CCCN(CCC)[C@H]1CCn2ccc(C=O)c2C1 = > 100 µM
• CCCN(CCC)[C@@H]1CCn2cccc2C1 = > 100 µM
• CCCN(CCC)[C@@H]1CCn2ccc(C=O)c2C1 = 80 µM
• CCCN(CCC)[C@H]1CCn2cc(CO)cc2C1 = > 100 µM
• CCCN(CCC)[C@@H]1CCn2cc(C)cc2C1 = 83 µM

Endpoint output: Ki of `CCCN(CCC)[C@@H]1CCn2cc(CO)cc2C1` . Value? > 100 µM

Ok, now `CCCN(CCC)[C@H]1CCn2c(C=O)ccc2C1` 26 µM

Ok, now `CCCN(CCC)[C@@H]1CCn2ccc(C)c2C1` 71 µM

---

Ki data for D(3) dopamine receptor (Homo sapiens, UniProt P35462) follow.
Give the value in nM but do not write nM after it.

# count of solved cases: 3
- CCCN(CCC)[C@@H]1CCn2ccc(C)c2C1: 2100
- CCCN(CCC)[C@@H]1CCn2cc(CO)cc2C1: 1400
- CCCN(CCC)[C@@H]1CCn2ccc(CO)c2C1: 330

Endpoint output: Ki of `CCCN(CCC)[C@@H]1CCn2c(CO)ccc2C1` . Value? 7400
